Tested on: SK-MEL-2
Test: Cytotoxicity against human SK-MEL-2 cells assessed as cellular growth at 10 uM by SRB assay
Type: functional
measurement-type: Activity (%)
Number only, in %; omit the unit.

Inquiry: Given `Cc1cc(C)c(NC(=O)c2sc3nc4c(cc3c2N)C(=O)CC(C)(C)C4)c(C)c1` , respond with its Activity.
Reply text: 119.22

Inquiry: Please report the measured Activity for `COc1cccc(C(=O)Nc2nc3ccc(Cl)cc3s2)c1`
Reply text: 108.68

Inquiry: Give reported Activity value for `Cc1ccc(NC(=O)c2sc3nc4c(cc3c2N)C(=O)CCC4)cc1Cl`
Reply text: 112.11

Inquiry: Return reported Activity. Input molecule: `O=C(Nc1nc2ccccc2s1)c1ccc(F)cc1`
Reply text: 113.78

Inquiry: Fill in Activity for record `CC1(C)CC(=O)c2cc3c(N)c(C(=O)Nc4ccccc4Cl)sc3nc2C1`
Reply text: 111.24

Inquiry: Consider the molecule `Cc1ccccc1NC(=O)c1sc2nc3c(cc2c1N)C(=O)CCC3` and give its recorded Activity.
Reply text: 58.56

Inquiry: State, in one line, measured Activity of `Nc1c(C(=O)Nc2ccccc2)sc2nc3c(cc12)C(=O)CCC3`
Reply text: 38.68

Inquiry: Given `Cc1ccc(S(=O)(=O)Oc2ccc(-c3cnc4ccccc4n3)cc2)cc1` , respond with its Activity.
Reply text: 127.78

Inquiry: Please look at this molecule and report its Activity: `O=C(NCCc1ccccc1)c1[nH]c2ccccc2c1Cl`
Reply text: 129.02

Inquiry: Look up and report measured Activity for this entry: `O=S(=O)(Oc1ccc(-c2cnc3ccccc3n2)cc1)c1ccccc1`
Reply text: 109.62

Inquiry: Consider the molecule `COc1ccc2nc(NC(=O)c3ccc(F)cc3)sc2c1` . State its measured Activity.
Reply text: 143.55
